assay: chemical genetic growth profiling, strain panel (AID 1159580);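 note: tested at 20 µM; growth read once vehicle control cultures reached saturation at 30 °C; lower values mean less growth of the strain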; details: S. cerevisiae deletion strains, growth OD, locus YJL129C, strain trk1
In all, about 5,500 compounds went through this assay and about 2,000 (36%) were called active. Not shown: some 18% with an inconclusive outcome. Cut-off read from the data, not from the text of the source: active = normalized growth mostly below about 0.91 (no sharp cut-off); inconclusive = no clear call, values can overlap the other calls; inactive = mostly above about 0.92. The list shows a part of the results.
Outcome codes: active, inactive

C[N+](C)(C)CC(O)CC(=O)O (stereo not given) | inactive
COC(=O)[C@]1(C)CCC[C@]2(C)c3ccc(C(C)C)cc3C(=O)CC12 (stereo not given in full) | inactive
COc1c2ccoc2cc2oc(=O)ccc12 | inactive
CN[C@@H]1[C@@H](O)C(OC2[C@@H](N)C[C@@H](N)[C@H](O[C@H]3O[C@H](C(C)O)[C@@H](O)[C@H](O)[C@H]3N)[C@H]2O)OC[C@]1(C)O (stereo not given in full) | inactive
C[C@H]1O[C@H](OC2[C@@H](O)[C@@H](O)C(O)[C@H](O)[C@H]2O)[C@@H](N)C[C@@H]1N=C(N)C(=O)O (stereo not given in full) | inactive
CCCCCCC(C)OC(=O)COc1ccc(Cl)cc1Cl (stereo not given) | inactive
Oc1cc2c(cc1O)C1c3ccc(O)c(O)c3OCC1(O)C2 (stereo not given) | inactive
COc1cc(OC)c2ccc(=O)oc2c1 | inactive
COc1ccc(Cl)cc1C(=O)NCCc1ccc(S(=O)(=O)NC(=O)NC2CCCCC2)cc1 | inactive
CC(C)[N+](C)(CCC(C(N)=O)(c1ccccc1)c1ccccc1)C(C)C | inactive
CCN[C@@H]1C[C@H](N)[C@@H](O[C@H]2OC(CN)=CC[C@H]2N)[C@H](O)[C@H]1OC1OC[C@](C)(O)[C@H](NC)[C@H]1O (stereo not given in full) | inactive
O=c1ccc2c(O)c3ccoc3cc2o1 | inactive
COC(=O)[C@@]1(C)CCC[C@]2(C)c3ccc(O)c(C(C)C)c3CCC12 (stereo not given in full) | active
COc1cc2occc2c2oc(=O)ccc12 | active
CC(C)c1c(O)ccc2c1CCC1[C@@](C)(CO)CCC[C@]21C (stereo not given in full) | inactive
COc1ccc2ccc(=O)oc2c1 | inactive
CCC1OC(=O)[C@H](C)C(=O)[C@H](C)[C@@H](OC2O[C@H](C)C[C@H](N(C)C)[C@H]2O)[C@](C)(OC)C2(CCCn3cnc(-c4cccnc4)c3)C[C@@H](C)C(=O)[C@H](C)[C@H]3N(C2)C(=O)O[C@]13C (stereo not given in full) | inactive
CC(C)c1c(O)ccc2c1CCC1[C@@](C)(C=O)CCC[C@]21C (stereo not given in full) | active
CC(=O)OC(C)C[N+](C)(C)C (stereo not given) | inactive
CCCCCCCCCCCC1=C(O)C(=O)C=C(O)C1=O | inactive

---

assay: chemical genetic growth profiling, strain panel (AID 1159580);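 note: tested at 20 µM; growth read once vehicle control cultures reached saturation at 30 °C; lower values mean less growth of the strain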; settings: S. cerevisiae deletion strains, growth OD, locus YLR262C, strain YPT6
Among all 5,500 compounds or so, about 2,000 (36%) were called active. Not shown: some 18% with an inconclusive outcome. Rule as the data show it: active = normalized growth mostly below about 0.91 (no sharp cut-off); inconclusive = no clear call, values can overlap the other calls; inactive = mostly above about 0.92. This is one part of the list.
Outcome codes: Yes = active, No = inactive

CC1O[C@@H](Oc2c(-c3ccc(O)c(O)c3)oc3cc(O)cc(O)c3c2=O)[C@H](O)[C@H](O)[C@H]1O (stereo not given in full) | No
O=c1c(O)c(-c2ccc(O)c(O)c2)oc2cc(O)cc(O)c12 | No
CCCCCCCCCCCC1=C(O)C(=O)C=C(O)C1=O | Yes
Cn1[nH]c(=O)cc1C(=O)NN | No
O=c1c(O)c(-c2ccc(O)cc2O)oc2cc(O)cc(O)c12 | No
C[C@@H]1O[C@@H](OC[C@H]2OC(Oc3c(-c4ccc(O)c(O)c4)oc4cc(O)cc(O)c4c3=O)[C@H](O)[C@@H](O)[C@@H]2O)[C@H](O)[C@H](O)[C@H]1O (stereo not given in full) | No
CCN(CC)C(=O)c1[nH]c(C)c(C)c1C | No
Cc1ccc(/C=C2\CCc3ccccc3C2=O)o1 | Yes
CC(C)c1c(O)c(-c2cc3c(c(C(C)C)c2O)CCC2C(C)(C)CCC[C@]32C)cc2c1CCC1C(C)(C)CCC[C@]21C (stereo not given in full) | No
CCOC(=O)C1=C(N)Oc2ccc(Br)cc2C1C(C#N)C(=O)OCC (stereo not given) | Yes
